Origin of measurements: the supplement of paper PMC10567573

B1: TEKT4 (parent)
chain: SEVEELNMSLTALREKLLEAEQSL

Variants of: B1
procedure summary: protein stability index of a GFP-peptide fusion (GPS, HEK-293T) (PSI 1-6); higher = more stable;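 also: lentivirally expressed fusions sorted by FACS into six bins by GFP to DsRed ratio, PSI derived from sequencing read proportions per bin multiplied by bin number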
cond: c terminus: a fixed tail appended
Where protein stability index equals or exceeds 4, the correct label is 1 (yes); where it does not, the label is 0 (no).

Assess whether reported protein stability index for "LEVEELNMSLTALREKLLEAEQSL" sits at 4 or higher.
0 (no)

Assess whether reported protein stability index for "SEVEELNMSLTALREKLLEGEQSL" sits at 4 or higher.
1 (yes)

Assess whether reported protein stability index for "SEVEELNMSLTALREKLLEAEQYL" sits at 4 or higher.
0 (no)

Assess whether reported protein stability index for "SEVEELNGSLTALREKLLEAEQSL" sits at 4 or higher.
1 (yes)

Assess whether reported protein stability index for "SEVEELNMSLTALREKELEAEQSL" sits at 4 or higher.
1 (yes)

Assess whether reported protein stability index for "SEVEELNMSLTYLREKLLEAEQSL" sits at 4 or higher.
0 (no)

Assess whether reported protein stability index for "SEVEELNMSLTALREKLLWAEQSL" sits at 4 or higher.
0 (no)

Assess whether reported protein stability index for "NEVEELNMSLTALREKLLEAEQSL" sits at 4 or higher.
0 (no)

Assess whether reported protein stability index for "SEVEELNMDLTALREKLLEAEQSL" sits at 4 or higher.
0 (no)

Assess whether reported protein stability index for "EEVEELNMSLTALREKLLEAEQSL" sits at 4 or higher.
0 (no)

Assess whether reported protein stability index for "SEVEELNMSLTALPEKLLEAEQSL" sits at 4 or higher.
1 (yes)
